B1: H2-Kb / H5 (parent)
chain 1: GEQVEQRPPHLSVREGDSAVIICTYTDPNSYYFFWYKQEPGAGLQLLMKVFSSTEINEGQGFTVLLNKKDKQLSLNLTAAHPGDSAVYFCAVSNYGSSGNKLIFGIGTLLSVKP
chain 2: EAAVTQSPRNKVAVTGGKVTLSCNQTNNHNNMYWYRQDTGHGLRLIHYSYGAGSTEKGDIPDGYKASRPSQENFSLILELATPSQTSVYFCASGDRERDTQYFGPGTRLLVL
chain 3: not shown
chain 4: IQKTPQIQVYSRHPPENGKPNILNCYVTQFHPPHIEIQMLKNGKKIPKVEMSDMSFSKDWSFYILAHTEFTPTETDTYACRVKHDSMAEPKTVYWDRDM
chain 5: SIINFEKL

variants of: B1; test: % of reporter cells activated (NFAT-GFP), raw; conditions: with H5; scale: % of reporter cells activated; also: test concentration or dose not given here
Tag: condition met if measured ratio to parent is not below 0.5, condition not met if it is.

Some solved cases for reference:
chain 5 N4D	condition not met
chain 5 L8A	condition met
chain 5 I2C	condition met
chain 5 L8F	condition not met
chain 5 I3A	condition not met
chain 5 I3R	condition not met

Hello, I need to know if chain 5 S1Y has measured ratio to parent not below 0.5. Thanks!
condition not met
